Tested on: Lolium multiflorum
Assay: Post-emergence herbicidal effect
Assay type: in vivo
Details: 80 g/ha, visual assessment after about 3 weeks
Experimental: Seeds of monocotyledonous and dicotyledonous weed and crop plants are laid out in sandy loam in wood-fibre pots, covered with soil and cultivated in a greenhouse under good growth conditions. […] After the test plants have been left to stand in the greenhouse under optimal growth conditions for about 3 weeks, the action of the preparations is assessed visually in comparison to untreated controls (herbicidal action in percent (%): 100% activity=the plants have died, 0% activity=like control plants).
Endpoint: Post-emergence effectiveness LOLMU (%)
Provide the reading as a plain figure in %.

# input // Post-emergence effectiveness LOLMU lookup, key: CC#Cc1cc(C)c(C2=C(O)C3(CCC(COC)C3)NC2=O)c(CC)c1 (stereo not drawn) [Example I-9]
# output 100

# input Post-emergence effectiveness LOLMU for CCc1cc(C#CC2CC2)cc(C)c1C1=C(OC(=O)C(C)C)C2(CCC(COC)C2)NC1=O (mixture of isomers) [Example Ia-10] ?
# output 90

# input Recorded Post-emergence effectiveness LOLMU of CC#Cc1cc(C)c(C2=C(OC(=O)C(C)C)C3(CCC(COC)C3)NC2=O)c(CC)c1 (stereo not drawn) [Example Ia-8] , please.
# output 100
